- target: heteromeric KV7.2/KV7.3 channels (KCNQ2, KCNQ3) (Homo sapiens, UniProt O43525+O43526)
- Construct: expressed in transfected cells; host or cells: CHO-K1
- assay.remarks: Automated patch-clamp (Sophion Qube 384) potency assay against KV7.2/KV7.3 channels
- Type: cell-based
- assay.conditions: CHO-K1/Kv7.2/Kv7.3 cells; maximal shift in the Vhalf from the top of the curve
- Source text: Assessment of In Vitro Potency Against KV7.2/KV7.3 Channels […] On the day of the experiment, cells were resuspended in serum free media, counted and diluted to a final concentration of 3.5×10^6 cells per ml of media. […] The lower the EC50 value, the higher the potency of the analyzed compound. […] In Table 3, ND means that selectivity was not determined.
Note: every record was labeled by where its Kv7.2/7.3 ΔV1/2 sits among one = under 20 mV, two = from 20 mV up to 30 mV, three = 30 mV and over

O=C(NCc1cccc(F)c1)NCc1ccnc(OCC(F)(F)F)c1	one
O=C(NCc1ccnc(OCC(F)(F)F)n1)NCC1CCCCC1	two
CC1CC(NC(=O)NCc2ccnc(OCC(F)(F)F)c2)c2ccccc21 (stereo not drawn)	three
O=C(NCc1ccnc(OCC(F)(F)F)c1)N[C@@H]1COC[C@H]1Oc1ccc(F)cc1	two
C[C@H](Oc1cc(CNC(=O)NCCC2(C(F)(F)F)CC2)ncn1)C(F)(F)F	two
O=C(NCc1ccnc(OCC(F)(F)F)c1)NC1COc2ccc(F)cc21 (stereo not drawn)	one
O=C(NCc1ccnc(OCC(F)(F)F)c1)N[C@H]1CCc2ccc(F)cc21	one
CC(C)(C)[C@@H](O)CNC(=O)NCc1ccnc(OCC(F)(F)C(F)(F)F)c1	two
O=C(NCCC1(C(F)(F)F)CC1)N1CCC[C@H]1c1ccnc(OCC(F)(F)F)c1	two
COc1ccc2c(c1)[C@H](NC(=O)NCc1ccnc(OCC(F)(F)F)c1)CCO2	three
O=C(NCc1ccnc(OCC(F)(F)F)c1)N[C@@H]1CCCc2ccccc21	three
O=C(NCCC1(C(F)(F)F)CC1)NCc1ccnc(OCc2ccc(F)cc2)c1	two
O=C(NCc1ccnc(OCC(F)(F)F)c1)NC1CCc2ccccc21 (stereo not drawn)	two
Cc1cnc(COc2cc(CNC(=O)NCCC3(C(F)(F)F)CC3)ccn2)o1	two
O=C(NCc1ccnc(OCC(F)(F)F)c1)N[C@@H]1CCCc2cc(F)ccc21	three
Cc1cc(CNC(=O)NCCC2(C(F)(F)F)CC2)cc(OCC(F)(F)F)n1	two
O=C(NCc1ccnc(OCC(F)F)c1)N[C@@H]1CCc2ccc(F)cc21	three
Cc1ccc2c(c1)[C@@H](NC(=O)NCc1ccnc(OCC(F)(F)F)c1)CC2	one

----------
- target: heteromeric KV7.2/KV7.3 channels (KCNQ2, KCNQ3) (Homo sapiens, UniProt O43525+O43526)
- Construct: expressed in transfected cells; host or cells: CHO-K1
- assay.remarks: Automated patch-clamp (Sophion Qube 384) potency assay against KV7.2/KV7.3 channels
- Type: cell-based
- assay.conditions: CHO-K1/Kv7.2/Kv7.3 cells; maximal shift in the Vhalf from the top of the curve
Listing of recorded Kv7.2/7.3 ΔV1/2 by entry.
reported.metric: Kv7.2/7.3 ΔV1/2

COc1cccc(N2CC[C@@H](NC(=O)NCc3ccnc(OCC(F)(F)F)c3)C2)c1 [Compound 194]	29.55 mV
O=C(NCCC1(C(F)(F)F)CC1)NCc1ccnc(N2CC(C(F)(F)F)C2)c1 [Compound 44]	17.02 mV
O=C(NCc1ccnc(OCC(F)(F)F)c1)Nc1cccc2c1OCC2 [Compound 131]	22.47 mV
O=C(NCc1ccnc(OCC(F)(F)F)n1)N[C@@H]1CCc2ccc(F)cc21 [Compound 167]	20.68 mV

----------
- target: heteromeric KV7.2/KV7.3 channels (KCNQ2, KCNQ3) (Homo sapiens, UniProt O43525+O43526)
- Construct: expressed in transfected cells; host or cells: CHO-K1
- assay.remarks: Automated patch-clamp (Sophion Qube 384) potency assay against KV7.2/KV7.3 channels
- Assay type: cell-based
- assay.conditions: CHO-K1/Kv7.2/Kv7.3 cells; maximal shift in the Vhalf from the top of the curve
reported.metric: Kv7.2/7.3 ΔV1/2 (mV)

O=C(NCc1ccnc(OCC(F)(F)F)c1)N[C@@H]1CCC[C@H]1c1ccc(F)cc1	28.3
O=C(NCc1ccnc(OCC(F)(F)F)c1)N[C@H]1CCOc2c(F)cccc21	24.16
O=C(NCCC1(C(F)(F)F)CC1)NCc1cc(OCC(F)(F)F)nc(N2CCOCC2)c1	31.67
O=C(NCc1ccnc(OCC(F)(F)F)c1)N[C@H]1COC2(CC2)C1	46.27

----------
- target: heteromeric KV7.2/KV7.3 channels (KCNQ2, KCNQ3) (Homo sapiens, UniProt O43525+O43526)
- assay.remarks: Automated patch-clamp (Sophion Qube 384) potency assay against KV7.2/KV7.3 channels
- assay.conditions: CHO-K1/Kv7.2/Kv7.3 cells; EC50 from concentration-response of shift in Vhalf, 10 concentrations up to 30 μM; read-out: Kv7.2/7.3 EC50
- Source text: Assessment of In Vitro Potency Against KV7.2/KV7.3 Channels […] On the day of the experiment, cells were resuspended in serum free media, counted and diluted to a final concentration of 3.5×10^6 cells per ml of media. […] The lower the EC50 value, the higher the potency of the analyzed compound. […] In Table 3, ND means that selectivity was not determined.
reported.metric: EC50 (nM)

COc1ccc2c(c1)OC[C@H]2NC(=O)NCc1ccnc(OCC(F)(F)F)c1	8430
O=C(NCc1ccnc(OCC(F)(F)F)c1)N[C@@H]1CN(CC(F)(F)F)C[C@H]1c1ccccc1	1430
C#CCOc1cc(CNC(=O)N[C@@H]2CCCc3c(F)cccc32)ccn1	1760
O=C(NCc1ccnc(OCC(F)(F)F)c1)NC1CCc2sccc21 (stereo not shown)	2680

----------
- target: heteromeric KV7.2/KV7.3 channels (KCNQ2, KCNQ3) (Homo sapiens, UniProt O43525+O43526)
- Construct: expressed in transfected cells; host or cells: CHO-K1
- assay.remarks: Automated patch-clamp (Sophion Qube 384) potency assay against KV7.2/KV7.3 channels
- Format: cell-based
- assay.conditions: CHO-K1/Kv7.2/Kv7.3 cells; EC50 from concentration-response of shift in Vhalf, 10 concentrations up to 30 μM; read-out: Kv7.2/7.3 EC50
pEC50: −log10 of the molar value.
reported.metric: pEC50

COCC1(NC(=O)NCc2ccnc(OCC(F)(F)F)c2)Cc2ccccc2C1	5.74
O=C(NCc1ccnc(C(F)(F)F)c1)Nc1cc(F)cc(Cl)c1	5.42
O=C(NCc1ccnc(OCC(F)(F)F)c1)NC1CCc2c(F)cc(F)cc21 (stereo not shown)	6.45
O=C(NCc1ccnc(OCc2ccccc2)c1)NCC(O)C1(C(F)(F)F)CC1 (racemic)	5.62
O=C(NCc1ccnc(OCC(F)(F)F)c1)N[C@H]1CCCc2ccccc21	6.71
O=C(NCc1ccnc(OCC(F)(F)F)c1)NCC1CCc2ccccc21 (stereo not shown)	5.40
Cc1ccc2c(c1)[C@H](NC(=O)NCc1ccnc(OCC(F)(F)F)c1)CC2	5.51
O=C(NCc1ccnc(OCC(F)(F)F)c1)Nc1cccc2c1OCC2	6.12
O=C(NCCC1(C(F)(F)F)CC1)NCc1ccnc(OCc2ccccn2)c1	5.32
O=C(NCc1ccnc(OCC(F)(F)F)c1)N[C@@H]1COC[C@H]1Oc1ccccc1F	5.43
O=C(NCc1ccnc(OCC(F)(F)F)c1)N[C@H]1CSc2ccccc2C1	6.48
O=C(NCc1ccnc(OCC(F)(F)F)c1)N[C@H]1CC[C@@H](c2ccccc2F)C1	5.86
COc1ccc2c(c1)[C@@H](NC(=O)NCc1ccnc(OCC(F)(F)F)c1)CC2	6.40
O=C(NCCC1(C(F)(F)F)CC1)NCc1ccnc(OCC2CC(F)(F)C2)c1	5.69
C[C@@H](Oc1cc(CNC(=O)N[C@@H]2CCOc3ccc(F)cc32)ncn1)C(F)(F)F	5.17
O=C(NCc1ccnc(C(F)(F)F)c1)N[C@H]1CCc2ccc(F)cc21	5.38
O=C(NCc1ccnc(OCC(F)(F)F)c1)N[C@@H]1CCC[C@H]1c1ccc(F)cc1	6.33
O=C(NCC1CCCCC1)N[C@@H](CO)c1ccnc(OCC(F)(F)F)c1	5.87
O=C(NCc1ccnc(OCC(F)(F)F)c1)N[C@@H]1COC[C@H]1Oc1ccc(F)cc1	5.28
COc1cc2c(cc1F)CCC2NC(=O)NCc1ccnc(OCC(F)(F)F)c1 (stereo not shown)	6.17
CC(F)(F)c1cc(CNC(=O)N[C@@H]2CCc3ccc(F)cc32)ccn1	4.93
O=C(NCc1ccnc(OCC(F)(F)F)c1)N[C@@H]1CCSc2ccccc21	5.91
CN(CC(F)(F)F)c1cc(CNC(=O)NCCC2(C(F)(F)F)CC2)ccn1	5.33
O=C(NCc1ccnc(OCC(F)(F)F)n1)N[C@@H]1CCc2ccc(F)cc21	4.99
O=C(NCc1ccnc(OCC(F)(F)F)c1)N[C@@H](C1CC1)C(F)(F)F	5.83
O=C(NCc1ccnc(OCC(F)(F)F)c1)NCc1ccnc(OCC(F)(F)F)c1	5.58
O=C(NCc1cccc(F)c1)NCc1ccnc(OCc2ccccc2)c1	6.02
O=C(NCCC1(C(F)(F)F)CC1)N[C@@H](CO)c1ccnc(OCC(F)(F)F)c1	6.19
O=C(NCc1ccnc(OCC(F)(F)F)c1)NC1CCC(F)(F)CC1	5.80
N#Cc1cccc2c1CC[C@H]2NC(=O)NCc1ccnc(OCC(F)(F)F)c1	5.59
COc1cccc(N2CC[C@@H](NC(=O)NCc3ccnc(OCC(F)(F)F)c3)C2)c1	5.59
O=C(NCc1ccnc(OCC(F)(F)F)c1)N[C@H]1COC[C@H]1c1ccc(F)cc1	4.93
O=C(NCc1ccnc(OCC(F)(F)F)c1)NCC1CCC(F)(F)C1 (stereo not shown)	6.02
O=C(NCc1ccnc(OCC(F)(F)F)c1)N[C@@H]1CCc2c(F)cc(F)cc21	5.96
